Test system: intracellular proteome of ENR+CD and ENR organoids
Test: LC-MS/MS TMT proteomics of ENR+CD versus ENR organoids
Type: cell-based, C57BL/6 mice
Conditions: up = enriched in ENR+CD, down = enriched in ENR; FDR<0.05 and log fold change cut-off

molecule	change
P30681 (protein, UniProt P30681 1-210, looked up, full-length) MGKGDPNKPRGKMSSYAFFVQTCREEHKKKHPDSSVNFAEFSKKCSERWKTMSAKEKSKFEDLAKSDKARYDREMKNYVPPKGDKKGKKKDPNAPKRPPSAFFLFCSENRPKIKIEHPGLSIGDTAKKLGEMWSEQSAKDKQPYEQKAAKLKEKYEKDIAAYRAKGKSEAGKKGPGRPTGSKKKNEPEDEEEEEEEEEEEDDEEEEEDEE	down
P03958 (protein, UniProt P03958 1-352, looked up, full-length) MAQTPAFNKPKVELHVHLDGAIKPETILYFGKKRGIALPADTVEELRNIIGMDKPLSLPGFLAKFDYYMPVIAGCREAIKRIAYEFVEMKAKEGVVYVEVRYSPHLLANSKVDPMPWNQTEGDVTPDDVVDLVNQGLQEGEQAFGIKVRSILCCMRHQPSWSLEVLELCKKYNQKTVVAMDLAGDETIEGSSLFPGHVEAYEGAVKNGIHRTVHAGEVGSPEVVREAVDILKTERVGHGYHTIEDEALYNRLLKENMHFEVCPWSSYLTGAWDPKTTHAVVRFKNDKANYSLNTDDPLIFKSTLDTDYQMTKKDMGFTEEEFKRLNINAAKSSFLPEEEKKELLERLYREYQ	up
O09037 (protein, UniProt O09037 1-175, looked up, full-length) MLPHLVLNSISWMLLSCLLFVFQVQGEDFQKEVPSPRTSCPMGYKAYRSHCYALVMTPKSWFQADLVCQKRPSGHLVSILSGGEASFVSSLVNGRVDNYQDIWIGLHDPTMGQQPNGGGWEWSNSDVLNYLNWDGDPSSTVNRGHCGSLTASSGFLKWGDYYCDGTLPFVCKFKQ	down
Q9D6X6 (protein, UniProt Q9D6X6 1-382, looked up, full-length) MAGIPGLFILLVLLCVFMQVSPYTVPWKPTWPAYRLPVVLPQSTLNLAKADFDAKAKLEVSSSCGPQCHKGTPLPTYEEAKQYLSYETLYANGSRTETRVGIYILSNGEGRARGRDSEATGRSRRKRQIYGYDGRFSIFGKDFLLNYPFSTSVKLSTGCTGTLVAEKHVLTAAHCIHDGKTYVKGTQKLRVGFLKPKYKDGAGGDNSSSSAMPDKMKFQWIRVKRTHVPKGWIKGNANDIGMDYDYALLELKKPHKRQFMKIGVSPPAKQLPGGRIHFSGYDNDRPGNLVYRFCDVKDETYDLLYQQCDAQPGASGSGVYVRMWKRPQQKWERKIIGIFSGHQWVDMNGSPQDFNVAVRITPLKYAQICYWIKGNYLDCREG	up
Q05186 (protein, UniProt Q05186 1-325, looked up, full-length) MARGGRLGLALGLLLALVLALRAKPTVRKERVVRPDSELGERPPEDNQSFQYDHEAFLGKEDSKTFDQLSPDESKERLGKIVDRIDSDGDGLVTTEELKLWIKRVQKRYIYDNVAKVWKDYDRDKDEKISWEEYKQATYGYYLGNPAEFHDSSDHHTFKKMLPRDERRFKASDLDGDLTATREEFTAFLHPEEFEHMKEIVVLETLEDIDKNGDGFVDQDEYIADMFSHEDNGPEPDWVLSEREQFNDFRDLNKDGKLDKDEIRHWILPQDYDHAQAEARHLVYESDKNKDEMLTKEEILDNWNMFVGSQATNYGEDLTKNHDEL	up
Q8CAB8 (protein, UniProt Q8CAB8 1-329, looked up, full-length) MELHILEHRLQVASVAKESIPLFTYGLIKLAFLSSKTRCKFFSLTETPEDYTIIVDEEGFLELPSSEHLSVADATWLALNVVSGGGSFSSSQPIGVTKIAKSVIAPLADQNISVFMLSTYQTDFILVRERDLPFVTHTLSSEFTILRVVNGETVAAENLSFTNGFVKPKMVQRPVIHPLSSPSNRFCVTSLDPDTLPAVATLLMDVMFYSNGVKDPMAASDDCGHIRFFSFSLIEGYISLVMDVQTQQRFPSHLLFTSASGELWKMVRIGGQPLGFDECGIVAQISEPLAAADIPAYYISTFKFDHALVPEENISGVIHALKVSQAGKH	up
Q8CGK7 (protein, UniProt Q8CGK7 1-381, looked up, full-length) MGCLGNSSKTAEDQGVDEKERREANKKIEKQLQKERLAYKATHRLLLLGAGESGKSTIVKQMRILHVNGFNPEEKKQKILDIRKNVKDAIVTIVSAMSTIIPPVPLANPENQFRSDYIKSIAPITDFEYSQEFFDHVKKLWDDEGVKACFERSNEYQLIDCAQYFLERIDSVSLVDYTPTDQDLLRCRVLTSGIFETRFQVDKVNFHMFDVGGQRDERRKWIQCFNDVTAIIYVAACSSYNMVIREDNNTNRLRESLDLFESIWNNRWLRTISIILFLNKQDMLAEKVLAGKSKIEDYFPEYANYTVPEDATPDAGEDPKVTRAKFFIRDLFLRISTATGDGKHYCYPHFTCAVDTENIRRVFNDCRDIIQRMHLKQYELL	down
P04184 (protein, UniProt P04184 1-233, looked up, full-length) MSYINLPTVLPSSPSKTRGQIQVILGPMFSGKSTELMRRVRRFQIAQYKCLVIKYAKDTRYSNSFSTHDRNTMDALPACMLRDVTQESLGVAVIGIDEGQFFPDIVDFCEMMANEGKTVIVAALDGTFQRKAFGSILNLVPLAESVVKLTAVCMECFREAAYTKRLGLEKEVEVIGGADKYHSVCRLCYFKKSSAQTAGSDNKNCLVLGQPGEALVVRKLFASQQVLQYNSAN	down
